# Tested on: Candida albicans ATCC MYA-2876
# PROTOCOL SUMMARY: Minimal inhibitory concentration (MIC) test on fungal growth (CLSI M27, yeasts)
# Assay type: cell-based
# PARTICULARS: Candida albicans, 24 h, read-out: MIC Candida albicans ATCC MYA-2876
PROPERTY LABEL: MIC (µg/mL)
Supply the numeric figure in µg/mL, leaving out any unit text.

Tell me its MIC given OC(Cn1cnnn1)(c1ccc(F)cc1F)C(F)(F)C12CC(c3ccc(OCC(F)(F)F)cn3)(C1)C2 (stereo not drawn) as the entry.
0.016

Tell me its MIC given OC(COc1ccc(C23CC(C(F)(F)C(O)(Cn4cnnn4)c4ccc(F)cc4F)(C2)C3)cc1)CN1CCOCC1 (stereo not drawn) as the entry.
0.06

###

# Tested on: Candida albicans ATCC MYA-2876
# PROTOCOL SUMMARY: Minimal inhibitory concentration (MIC) test on fungal growth (CLSI M27, yeasts)
# Format: cell-based
# PARTICULARS: Candida albicans, 24 h, read-out: MIC Candida albicans ATCC MYA-2876
Mark yes only when MIC stays strictly below 0.03 µg/mL. Values equal to the cut-off are no.

CC(C)NC[C@@H](O)COc1ccc(C23CC(C(F)(F)C(O)(Cn4cnnn4)c4ccc(F)cc4F)(C2)C3)cc1 (stereo partly shown) : no

Is MIC of OC(Cn1cnnn1)(c1ccc(F)cc1F)C(F)(F)C12CC(c3cnc(NCC(F)(F)F)nc3)(C1)C2 (stereo not shown) strictly below 0.03 µg/mL?
yes

Is MIC of OC(Cn1cnnn1)(c1ccc(F)cc1F)C(F)(F)C12CC(c3ccc(OCC(F)(F)F)nn3)(C1)C2 (stereo not shown) strictly below 0.03 µg/mL?
no

Is MIC of OC(Cn1cnnn1)(c1ccc(F)cc1F)C(F)(F)C12CC(c3ccc(OCCN4CCOCC4)cc3)(C1)C2 (stereo not shown) strictly below 0.03 µg/mL?
yes

Is MIC of N#CCOc1ccc(C23CC(C(F)(F)C(O)(Cn4cnnn4)c4ccc(F)cc4F)(C2)C3)cc1 (stereo not shown) strictly below 0.03 µg/mL?
yes

###

# Test system: Candida albicans ATCC MYA-2876
# PROTOCOL SUMMARY: Minimal inhibitory concentration (MIC) test on fungal growth (CLSI M27, yeasts)
# Assay type: cell-based
# PARTICULARS: Candida albicans, 24 h, read-out: MIC Candida albicans ATCC MYA-2876
PROPERTY LABEL: MIC (µg/mL)
Supply the numeric figure in µg/mL, leaving out any unit text.

Some solved cases for reference:
COc1ccc(C23CC(C(F)(F)C(O)(Cn4cnnn4)c4ccc(F)cc4F)(C2)C3)cn1 (stereo not shown) [Compound 92] : 0.03
NC[C@H](O)COc1ccc(C23CC(C(F)(F)C(O)(Cn4cnnn4)c4ccc(F)cc4F)(C2)C3)cc1 (stereo partly shown) [Compound 52] : 1
CN(C)CCOc1ccc(C23CC(C(F)(F)C(O)(Cn4cnnn4)c4ccc(F)cc4F)(C2)C3)cc1 (stereo not shown) [Compound 64] : 0.06

Tell me its MIC given OC(Cn1cnnn1)(c1ccc(F)cc1F)C(F)(F)C12CC(c3ccc(OC[C@H]4CCCO4)cc3)(C1)C2 (stereo partly shown) [Compound 76] as the entry.
0.016

Data origin: patent US20240228446A1
